target.or.test.system: Cathepsin B (Homo sapiens)
method.description: Cathepsin B (CatB) cleavage assay
Type: biochemical
condition.info: norfloxacin linker compounds; 1 h
Protocol: 15 μL of test compound solution (2 mM in DMSO) was added to the incubation plate in duplicate. 30 μL of Cathepsin B stock solution (16 μM) was pre-activated with 1500 μL activation buffer for 10 min at room temperature. The Cathepsin B solution was diluted in 13.17 mL water, then 735 μL activatived enzyme mixture was added to the incubation plate. The mixture was incubated at 37° C. in a waterbath. […] The samples were mixed and centrifuged at 4000 rpm for 20 min. […]
I'd appreciate it if you could supply % Parent remaining after incubation with CatB, T = 1 h values for the items below.

Fill blank: measured % Parent remaining after incubation with CatB, T = 1 h of the molecule CCn1cc(C(=O)O)c(=O)c2cc(F)c(N3CCN(C(=O)OCc4ccc(NC(=O)[C@H](CCN)NC(=O)[C@@H](NC(=O)[C@H](CCC(=O)O)NC(=O)CCCC(=O)N(C)C)C(C)C)cc4)CC3)cc21 is ____.
0%

Entry CCn1cc(C(=O)O)c(=O)c2cc(F)c(N3CCN(C(=O)OCc4ccc(NC(=O)[C@H](CCCNC(N)=O)NC(=O)[C@@H](NC(=O)[C@H](CCC(=O)O)NC(=O)CCCC(=O)N(C)C)C(C)C)cc4)CC3)cc21 please
0%

Input CCn1cc(C(=O)O)c(=O)c2cc(F)c(N3CCN(C(=O)OCc4ccc(NC(=O)[C@H](CCN)NC(=O)[C@@H](NC(=O)CCCC(=O)N(C)C)C(C)C)cc4)CC3)cc21
0.3%

====

target.or.test.system: Cathepsin B (Homo sapiens, UniProt P07858)
method.description: Cathepsin B (CatB) cleavage assay
Assay type: biochemical
condition.info: norfloxacin linker compounds; 1 h
metric.name: % Parent remaining after incubation with CatB, T = 1 h (%)
Enter your answer as a number in %; do not include the unit.

Which % Parent remaining after incubation with CatB, T = 1 h value is on record for CCn1cc(C(=O)O)c(=O)c2cc(F)c(N3CCN(C(=O)OCc4ccc(NC(=O)[C@H](CCNC(=N)NC)NC(=O)[C@@H](NC(=O)CCCC(=O)N(C)C)C(C)C)cc4)CC3)cc21 [BCY9477] ?
0

Cool, now CCn1cc(C(=O)O)c(=O)c2cc(F)c(N3CCN(C(=O)OCc4ccc(NC(=O)[C@H](CN)NC(=O)[C@@H](NC(=O)CCCC(=O)N(C)C)C(C)C)cc4)CC3)cc21 [BCY10298]
92

And then CCn1cc(C(=O)O)c(=O)c2cc(F)c(N3CCN(C(=O)OCc4ccc(NC(=O)[C@H](CCCNC(N)=O)NC(=O)[C@@H](NC(=O)CCCC(=O)N(C)C)C(C)C)cc4)CC3)cc21 [BCY9422, reference compound] , what is it?
3

====

method.description: in vitro
condition.info: mouse, 2 μM, pH 7.4
fold increase in half-life vs Cit-Val strictly under 6 fold means True; at 6 fold or over means False.

Criterion: fold increase in half-life vs Cit-Val strictly below 6 fold. Is it met by CCn1cc(C(=O)O)c(=O)c2cc(F)c(N3CCN(C(=O)OCc4ccc(NC(=O)[C@H](CCN)NC(=O)[C@@H](NC(=O)[C@H](CCC(=O)O)NC(=O)CCCC(=O)N(C)C)C(C)C)cc4)CC3)cc21 ?
False

For CCn1cc(C(=O)O)c(=O)c2cc(F)c(N3CCN(C(=O)OCc4ccc(NC(=O)[C@H](CN)NC(=O)[C@@H](NC(=O)CCCC(=O)N(C)C)C(C)C)cc4)CC3)cc21 then?
False

Now try CCn1cc(C(=O)O)c(=O)c2cc(F)c(N3CCN(C(=O)OCc4ccc(NC(=O)[C@H](CCN)NC(=O)[C@@H](NC(=O)CCCC(=O)N(C)C)C(C)C)cc4)CC3)cc21 .
False

Consider next the compound CCn1cc(C(=O)O)c(=O)c2cc(F)c(N3CCN(C(=O)OCc4ccc(NC(=O)[C@H](CNC(=N)N)NC(=O)[C@@H](NC(=O)CCCC(=O)N(C)C)C(C)C)cc4)CC3)cc21 in the same way.
True

Record: CCn1cc(C(=O)O)c(=O)c2cc(F)c(N3CCN(C(=O)OCc4ccc(NC(=O)[C@H](CN)NC(=O)[C@@H](NC(=O)[C@H](CCC(=O)O)NC(=O)CCCC(=O)N(C)C)C(C)C)cc4)CC3)cc21
False

Subsequent entry: CCn1cc(C(=O)O)c(=O)c2cc(F)c(N3CCN(C(=O)OCc4ccc(NC(=O)[C@H](CCNC(=N)N)NC(=O)[C@@H](NC(=O)[C@H](CCC(=O)O)NC(=O)CCCC(=O)N(C)C)C(C)C)cc4)CC3)cc21
False

What do you have for CCn1cc(C(=O)O)c(=O)c2cc(F)c(N3CCN(C(=O)OCc4ccc(NC(=O)[C@H](CCNC(=N)NC)NC(=O)[C@@H](NC(=O)CCCC(=O)N(C)C)C(C)C)cc4)CC3)cc21 ?
False

Could you do the same for CCn1cc(C(=O)O)c(=O)c2cc(F)c(N3CCN(C(=O)OCc4ccc(NC(=O)[C@H](CCCNC(N)=O)NC(=O)[C@@H](NC(=O)[C@H](CCC(=O)O)NC(=O)CCCC(=O)N(C)C)C(C)C)cc4)CC3)cc21 , please?
False

Now the compound CCn1cc(C(=O)O)c(=O)c2cc(F)c(N3CCN(C(=O)OCc4ccc(NC(=O)[C@H](CCCNC(N)=O)NC(=O)[C@@H](NC(=O)CCCC(=O)N(C)C)C(C)C)cc4)CC3)cc21 [BCY9422, reference compound]
True

====

For each record, write down the corresponding half-life at 2 μM.
method.description: in vitro
condition.info: mouse, plasma, pH 7.4
Method: Pooled frozen plasma was thawed in a water bath at 37° C. Plasma was centrifuged at 4000 rpm for 5 min and the clots were removed if any. The pH will be adjusted to 7.4±0.1 if required. 1 mM stock solution was prepared with DMSO. […] The % remaining test compound after incubation in plasma was calculated using following equation: Remaining=100×(PAR at appointed incubation time/PAR at T0 time) […] The half-life (T½) was calculated from a log linear plot of concentration versus time.
Lab book: enter the figure in h, no units written.

# get_value(readout='half-life at 2 μM', item= CCn1cc(C(=O)O)c(=O)c2cc(F)c(N3CCN(C(=O)OCc4ccc(NC(=O)[C@H](CN)NC(=O)[C@@H](NC(=O)[C@H](CCC(=O)O)NC(=O)CCCC(=O)N(C)C)C(C)C)cc4)CC3)cc21 [BCY10297] )
15.5

Try CCn1cc(C(=O)O)c(=O)c2cc(F)c(N3CCN(C(=O)OCc4ccc(NC(=O)[C@H](CN)NC(=O)[C@@H](NC(=O)CCCC(=O)N(C)C)C(C)C)cc4)CC3)cc21 [BCY10298] next.
2.6

What would you report for CCn1cc(C(=O)O)c(=O)c2cc(F)c(N3CCN(C(=O)OCc4ccc(NC(=O)[C@H](CCN)NC(=O)[C@@H](NC(=O)[C@H](CCC(=O)O)NC(=O)CCCC(=O)N(C)C)C(C)C)cc4)CC3)cc21 [BCY10122] ?
39

Now this one: CCn1cc(C(=O)O)c(=O)c2cc(F)c(N3CCN(C(=O)OCc4ccc(NC(=O)[C@H](CCNC(=N)N)NC(=O)[C@@H](NC(=O)CCCC(=O)N(C)C)C(C)C)cc4)CC3)cc21 [BCY9423]
2.4

Moving on to the next compound: CCn1cc(C(=O)O)c(=O)c2cc(F)c(N3CCN(C(=O)OCc4ccc(NC(=O)[C@H](CCNC(=N)N)NC(=O)[C@@H](NC(=O)[C@H](CCC(=O)O)NC(=O)CCCC(=O)N(C)C)C(C)C)cc4)CC3)cc21 [BCY9695]
14.3

====

target.or.test.system: Cathepsin B (Homo sapiens)
method.description: Cathepsin B (CatB) cleavage assay
Format: biochemical
condition.info: norfloxacin linker compounds; 4 h
Experimental: 15 μL of test compound solution (2 mM in DMSO) was added to the incubation plate in duplicate. 30 μL of Cathepsin B stock solution (16 μM) was pre-activated with 1500 μL activation buffer for 10 min at room temperature. The Cathepsin B solution was diluted in 13.17 mL water, then 735 μL activatived enzyme mixture was added to the incubation plate. The mixture was incubated at 37° C. in a waterbath. […] The samples were mixed and centrifuged at 4000 rpm for 20 min. […]
metric.name: % Parent remaining after incubation with CatB, T = 4 h (%)
# value in %; strip the unit string

What is its % Parent remaining after incubation with CatB, T = 4 h for Cathepsin B (Homo sapiens)? Entry: CCn1cc(C(=O)O)c(=O)c2cc(F)c(N3CCN(C(=O)OCc4ccc(NC(=O)[C@H](CN)NC(=O)[C@@H](NC(=O)CCCC(=O)N(C)C)C(C)C)cc4)CC3)cc21 [BCY10298]
63

Field entry: CCn1cc(C(=O)O)c(=O)c2cc(F)c(N3CCN(C(=O)OCc4ccc(NC(=O)[C@H](CCCNC(N)=O)NC(=O)[C@@H](NC(=O)CCCC(=O)N(C)C)C(C)C)cc4)CC3)cc21 [BCY9422, reference compound]
0

Now consider CCn1cc(C(=O)O)c(=O)c2cc(F)c(N3CCN(C(=O)OCc4ccc(NC(=O)[C@H](CCNC(=N)NC)NC(=O)[C@@H](NC(=O)CCCC(=O)N(C)C)C(C)C)cc4)CC3)cc21 [BCY9477] .
0

// data source = patent US12540161B2
